Molecular target: T1, human TSLP (human, UniProt Q969D9 29-159)
T1 construct: used biotinylated in some assays; also called hTSLP; recombinant human TSLP
T1 sequence (Q969D9 29-159 R127A/R130S limits assumed): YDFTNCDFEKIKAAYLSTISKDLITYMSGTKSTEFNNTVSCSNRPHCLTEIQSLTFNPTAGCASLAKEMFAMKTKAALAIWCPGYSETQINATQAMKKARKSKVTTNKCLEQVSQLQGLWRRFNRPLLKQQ
Assay: ELISA, plate coated with human TSLP, test antibodies as human IgG1
Quantity Kind: EC50 (read off the curve)

1) TSLP-0111 (antibody, V domains shown) VH: QVQLQESGPGLVKPSETLSLTCAVSGYSISSGYGWSWIRQPPGKGLEWIGYFSYYGSTSYNPSLKSRVTISRDTSKNQFSLKLSSVTAADTAVYYCARTNLLYFDSWGQGTLVTVSS VL: EIVMTQSPATLSLSPGERATLSCRASQSVSSNLAWYQQKPGQAPRLLIYDASSRATGIPARFSGSGSGTDFTLTISSLEPEDFAVYYCQQYSNWPQYSFGQGTKVEIK :: ~0.08 µg/mL

Per the records, this binder ( TSLP-0109 (antibody, V domains shown) VH: QVQLQESGPGLVKPSETLSLTCAVSGYSISSGYGWSWIRQPPGKGLEWIGYISYYGSTSYNPSLKSRVTISRDTSKNQFSLKLSSVTAADTAVYYCARTNLLYFESWGQGTLVTVSS VL: EIVMTQSPATLSLSPGERATLSCRASQGISSYLAWYQQKPGQAPRLLIYDASNLQSGIPARFSGSGSGTDFTLTISSLEPEDFAVYYCQQYSNWPQYSFGQGTKVEIK ) has EC50 (read off the curve) equal to ~0.07 µg/mL
